Assay: Half life in rat at 5 mg/kg, po
Type: ADME, organism-based
Set-up: dose 5 mg/kg, route oral
Conditions: in vivo
Outcome measure: half-life (h)
All answers are understood in h, so give the number only.

Given the entry CCc1nc(-c2ccc(Cl)cc2Cl)c(CC)nc1NC(CC)CC , report its measured half-life.
4.9

====

The molecules below have reported Ki for Corticotropin-releasing factor receptor 1 (Rattus norvegicus).
All answers are understood in nM, so give the number only.

>  <Smi>
CCCN(CCC)c1cc(C)nc2c(-c3cnc(N(C)C)cc3C)c(C)nn12

>  <Unit of measurement>
nM

>  <Ki>
3.8

$$$$

Given the entry CCC(CC)Nc1nc(C)c(-c2ccc(OC(F)(F)F)cc2OC)nc1OC , report its measured Ki.
9.8

====

Assay: Clearance in rat at 10 mg/kg, po
Assay type: ADME, organism-based
Set-up: dose 10 mg/kg, route oral
Settings: in vivo
Outcome measure: CL/F (mL/min/kg)
All answers are understood in mL/min/kg, so give the number only.

Given the entry CCC(CC)Nc1nc(C)c(-c2ccc(OC(F)(F)F)cc2OC)nc1OC , report its measured CL/F.
12

====

Below, each entry is listed with its recorded log10(half-life).
Experiment: Half life in human microsomes
Format: ADME, Microsome
Scale: log10; quantity: half-life; unit before log: min

// solved cases for log10(half-life) follow
>  <Compound>
CCC(CC)Nc1nc(C)c(-c2ccc(OC(F)(F)F)cc2OC)nc1OC

>  <Outcome measure>
log10(half-life)

>  <Recorded value>
2.08

$$$$
>  <Compound>
CCc1nc(NC(CC)CC)c(OC)nc1-c1ccc(C(F)(F)F)cc1OC

>  <Outcome measure>
log10(half-life)

>  <Recorded value>
1.86

$$$$
>  <Compound>
CCc1nc(-c2ccc(OC)cc2Cl)c(OC)nc1NC(CC)CC

>  <Outcome measure>
log10(half-life)

>  <Recorded value>
2.08

$$$$
>  <Compound>
CCc1cc(OC)ccc1-c1nc(OC)c(NC(CC)CC)nc1CC

>  <Outcome measure>
log10(half-life)

>  <Recorded value>
2.08

$$$$
>  <Compound>
CCc1nc(-c2ccc(Cl)cc2Cl)c(CC)nc1SC(C)CC (stereo not drawn)

>  <Outcome measure>
log10(half-life)

>  <Recorded value>
1.23

$$$$

Given the entry CCc1nc(-c2ccc(Cl)cc2Cl)c(OC)nc1NC(CC)CC , report its measured log10(half-life).
1.62

Given the entry CCc1nc(N(CC2CC2)CC2CC2)c(CC)nc1-c1ccc(Cl)cc1Cl , report its measured log10(half-life).
0.90

Given the entry CCc1nc(-c2ccc(Cl)cc2Cl)c(CC)nc1NC(C)CN(C)C (stereo not drawn) , report its measured log10(half-life).
0.85

Given the entry CCc1nc(NC(CC)CC)c(OC)nc1-c1ccc(OC(F)F)cc1Cl , report its measured log10(half-life).
2.08

Given the entry CCc1nc(-c2ccc(OC)cc2OC(F)(F)F)c(CC)nc1NC(CC)CC , report its measured log10(half-life).
1.20

====

Assay: AUC (0 to 24 hrs) in rat at 3 mg/kg, iv
Assay type: ADME, organism-based
Set-up: time < 24 hr, dose 3 mg/kg, route intravenous
Details: plasma
Outcome measure: AUC(0-t) at 24 h (ng·h/mL)
All answers are understood in ng·h/mL, so give the number only.

Given the entry CCc1nc(-c2ccc(Cl)cc2Cl)c(CC)nc1NC(CC)CC , report its measured AUC(0-t) at 24 h.
4310

====

Assay: Oral bioavailability in rat at 5 mg/kg
Type: ADME, organism-based
Details: in vivo
Outcome measure: bioavailability (%)
All answers are understood in %, so give the number only.

Given the entry CCc1nc(-c2ccc(Cl)cc2Cl)c(CC)nc1NC(CC)CC , report its measured bioavailability.
83

====

Test: Cmax in rat at 10 mg/kg, po
Format: ADME, organism-based
Set-up: dose 10 mg/kg, route oral
Settings: in vivo
Outcome measure: Cmax (ng/mL)
All answers are understood in ng/mL, so give the number only.

Given the entry CCC(CC)Nc1nc(C)c(-c2ccc(OC(F)(F)F)cc2OC)nc1OC , report its measured Cmax.
456

====

Test: Volume of distribution at steady state in rat at 1 mg/kg, iv
Format: ADME, organism-based
Set-up: dose 1 mg/kg, route intravenous
Conditions: in vivo, read-out: Vdss
Outcome measure: Vd

Given the entry CCC(CC)Nc1nc(C)c(-c2ccc(OC(F)(F)F)cc2OC)nc1OC , report its measured Vd.
7.8 L/kg

====

Biological target: Corticotropin-releasing factor receptor 1 (Homo sapiens, UniProt P34998)
Assay: Displacement of [125I]-sauvagine from human CRF-1 receptor expressed in human IMR-32 cells after 2 hrs by scintillation counting
Type: cell-based
Below, each entry is listed with its recorded Ki.
All answers are understood in nM, so give the number only.

Given the entry CCc1nc(-c2ccc(Cl)cc2Cl)c(CC)nc1CC(CC)CC , report its measured Ki.
68

Given the entry CCc1nc(-c2ccc(OC)cc2OC)c(CC)nc1NC(CC)CC , report its measured Ki.
7.3

====

Test: Cmax in rat at 3 mg/kg, iv
Assay type: ADME, organism-based
Parameters: dose 3 mg/kg, route intravenous
Details: in vivo
Outcome measure: Cmax

Given the entry CCc1nc(-c2ccc(Cl)cc2Cl)c(CC)nc1NC(CC)CC , report its measured Cmax.
627 ng/mL

====

Experiment: Ratio of drug level in brain to plasma of rat at 5 mg/kg, po
Assay type: ADME, organism-based
Set-up: dose 5 mg/kg, route oral
Conditions: read-out: BPR
Outcome measure: Kp
Lab note: jot down the number only; don't add units.

Given the entry CCc1nc(-c2ccc(Cl)cc2Cl)c(CC)nc1NC(CC)CC , report its measured Kp.
2.5

====

Assay: Clearance in rat at 3 mg/kg, iv
Type: ADME, organism-based
Parameters: dose 3 mg/kg, route intravenous
Details: in vivo
Outcome measure: clearance (mL/min/kg)
All answers are understood in mL/min/kg, so give the number only.

Given the entry CCc1nc(-c2ccc(Cl)cc2Cl)c(CC)nc1NC(CC)CC , report its measured clearance.
16

====

Assay: Bioavailability in rat at 3 mg/kg, […]
Format: ADME, organism-based
Conditions: in vivo
Outcome measure: bioavailability (%)
All answers are understood in %, so give the number only.

Given the entry CCc1nc(-c2ccc(Cl)cc2Cl)c(CC)nc1NC(CC)CC , report its measured bioavailability.
83

====

Test: Cmax in rat at 5 mg/kg, po
Type: ADME, organism-based
Parameters: dose 5 mg/kg, route oral
Conditions: in vivo
Outcome measure: Cmax (ng/mL)
All answers are understood in ng/mL, so give the number only.

Given the entry CCc1nc(-c2ccc(Cl)cc2Cl)c(CC)nc1NC(CC)CC , report its measured Cmax.
627

====

Assay: Tmax in rat at 3 mg/kg, iv
Format: ADME, organism-based
Design: dose 3 mg/kg, route intravenous
Conditions: in vivo
Outcome measure: Tmax (h)
All answers are understood in h, so give the number only.

Given the entry CCc1nc(-c2ccc(Cl)cc2Cl)c(CC)nc1NC(CC)CC , report its measured Tmax.
1.3

====

Assay: Half life in rat microsomes
Assay type: ADME, Microsome
Classify as follows. Reported half-life greater than or equal to 40 min: Met. Reported half-life below: Not met.

Below are worked cases with known answers.
>  <Smi>
CCc1nc(-c2ccc(Cl)cc2Cl)c(CC)nc1NC(C1CC1)C1CC1

>  <Cat>
Not met

$$$$
>  <Smi>
CCc1nc(-c2ccc(C)cc2OC)c(CC)nc1NC(CC)CC

>  <Cat>
Not met

$$$$
>  <Smi>
CCc1nc(NC(CC)CC)c(OC)nc1-c1ccc(OC)cc1C(F)(F)F

>  <Cat>
Met

$$$$
>  <Smi>
CCC(CC)Nc1nc(C)c(-c2ccc(OC(F)(F)F)cc2OC)nc1OC

>  <Cat>
Met

$$$$
>  <Smi>
CCC(CC)Nc1nc(C)c(-c2ccc(Cl)cc2Cl)nc1C

>  <Cat>
Not met

$$$$
>  <Smi>
CCC(CC)Nc1nc(OC)c(-c2ccc(Cl)cc2Cl)nc1C

>  <Cat>
Not met

$$$$

Evaluate CCOc1ccc(-c2nc(OC)c(NC(CC)CC)nc2C)c(Cl)c1 : half-life at minimum 40 min?
Met

Evaluate CCc1nc(-c2ccc(OC(F)(F)F)cc2OC)c(OC)nc1NC(CC)CC : half-life at minimum 40 min?
Not met

====

Target: Corticotropin-releasing factor receptor 1 (Homo sapiens, UniProt P34998)
Sequence (P34998 whole entry): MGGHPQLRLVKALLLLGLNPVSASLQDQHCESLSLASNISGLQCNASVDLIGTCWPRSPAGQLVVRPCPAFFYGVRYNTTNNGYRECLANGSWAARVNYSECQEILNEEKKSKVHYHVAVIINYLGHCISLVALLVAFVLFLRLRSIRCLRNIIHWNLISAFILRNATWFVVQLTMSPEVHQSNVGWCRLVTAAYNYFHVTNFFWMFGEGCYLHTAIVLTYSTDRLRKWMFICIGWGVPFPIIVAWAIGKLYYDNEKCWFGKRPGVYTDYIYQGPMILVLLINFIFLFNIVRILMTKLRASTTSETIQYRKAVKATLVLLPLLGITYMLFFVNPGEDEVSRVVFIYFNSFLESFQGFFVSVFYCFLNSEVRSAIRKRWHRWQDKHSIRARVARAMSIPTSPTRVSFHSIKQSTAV
Experiment: Inhibition of human CRF-1 receptor expressed in human IMR-32 cells assessed as effect on cAMP production by ELISA in presence of 3 nM CRF
Outcome measure: pIC50
Lab note — pIC50 values are minus log10 of concentrations in M.

Given the entry CCC(CC)Nc1nc(C)c(-c2ccc(OC(F)(F)F)cc2OC)nc1OC , report its measured pIC50.
7.03
